For each of the binders below, state its OD (PE binding ELISA).
Molecular target: T1, mouse IL-2Rγ (mouse, UniProt P34902 23-263)
T1 construct: also called mo IL-2R
T1 sequence (looked up): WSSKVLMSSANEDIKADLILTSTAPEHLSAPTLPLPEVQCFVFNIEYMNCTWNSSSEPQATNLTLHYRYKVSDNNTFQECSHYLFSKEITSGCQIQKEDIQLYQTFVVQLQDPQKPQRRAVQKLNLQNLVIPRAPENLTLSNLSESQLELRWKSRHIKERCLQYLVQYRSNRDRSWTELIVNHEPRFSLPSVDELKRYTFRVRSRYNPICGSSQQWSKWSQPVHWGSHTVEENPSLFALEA
Test: PE binding ELISA, periplasmic extract on coated protein
Answers are plain numbers, in OD450 nm.

For orientation, consider the following solved cases.
[
  {
    "binder": "FJ1427_P035MP04E01 (VHH, VHH in periplasmic extract; also called clone nr) VHH: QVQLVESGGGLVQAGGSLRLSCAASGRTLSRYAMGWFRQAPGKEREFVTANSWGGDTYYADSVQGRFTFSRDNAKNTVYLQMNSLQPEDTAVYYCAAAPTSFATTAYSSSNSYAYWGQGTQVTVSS",
    "result number": 0.067
  },
  {
    "binder": "FJ1427_P035MP04C04 (VHH, VHH in periplasmic extract; also called clone nr) VHH: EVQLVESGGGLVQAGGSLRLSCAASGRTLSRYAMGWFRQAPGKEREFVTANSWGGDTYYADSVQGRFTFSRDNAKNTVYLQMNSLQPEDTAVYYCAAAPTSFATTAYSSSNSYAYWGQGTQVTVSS",
    "result number": 0.063
  }
]

Parameters: items (list). Returns: OD (PE binding ELISA) for each item.
1. FJ1427_P035MP04G02 (VHH, VHH in periplasmic extract; also called clone nr) VHH: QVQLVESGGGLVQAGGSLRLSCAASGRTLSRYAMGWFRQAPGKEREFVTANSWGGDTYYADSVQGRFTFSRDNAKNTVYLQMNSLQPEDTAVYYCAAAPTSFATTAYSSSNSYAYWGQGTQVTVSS
2. FJ1427_P035MP04A06 (VHH, VHH in periplasmic extract; also called clone nr) VHH: QVQLVESGGGLVQPGGSLRLSCAASGRTLSRYAMGWFRQAPGKEREFVTANSWGGDTYYADSVQGRFTFSRDNAKNTVYLQMNSLQPEDTAVYYCAAAPTSFATTAYSSSNSYAYWGQGTQVTVSS
3. FJ1427_P035MP04H05 (VHH, VHH in periplasmic extract; also called clone nr) VHH: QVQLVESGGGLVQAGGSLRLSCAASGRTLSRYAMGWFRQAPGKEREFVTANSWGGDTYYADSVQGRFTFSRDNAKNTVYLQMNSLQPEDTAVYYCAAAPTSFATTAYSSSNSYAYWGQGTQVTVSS
4. FJ1427_P035MP04F06 (VHH, VHH in periplasmic extract; also called clone nr) VHH: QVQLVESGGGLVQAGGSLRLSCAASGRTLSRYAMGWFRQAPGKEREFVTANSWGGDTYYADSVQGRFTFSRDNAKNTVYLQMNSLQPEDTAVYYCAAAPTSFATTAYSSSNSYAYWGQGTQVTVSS
5. FJ1427_P035MP04E08 (VHH, VHH in periplasmic extract; also called clone nr) VHH: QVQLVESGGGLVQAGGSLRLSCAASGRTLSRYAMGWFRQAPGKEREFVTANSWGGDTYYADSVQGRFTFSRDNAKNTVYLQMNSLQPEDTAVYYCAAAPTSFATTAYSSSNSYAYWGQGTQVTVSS
6. FJ1427_P035MP04A02 (VHH, VHH in periplasmic extract; also called clone nr) VHH: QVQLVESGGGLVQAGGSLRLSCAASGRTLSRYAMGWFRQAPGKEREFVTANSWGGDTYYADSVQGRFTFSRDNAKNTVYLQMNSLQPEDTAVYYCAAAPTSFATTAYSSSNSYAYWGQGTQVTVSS

[0.066, 0.063, 0.08, 0.077, 0.078, 0.085]

Source listed as patent US20240409645A1.
